Each recorded value in this set is attributed to patent US20100310573A1.

# test_system: T1, recombinant human CD4 (catalogue number: 514-CD/CF, manufactured by R&D Systems) (human, UniProt P01730 26-390)
# T1 construct: Bought protein (R&D Systems); also called recombinant CD4
# test: SPR, Biacore T100; antibody captured on anti-human IgG chip, recombinant human CD4 flowed; 1:1 binding model
# Method: In order to kinetically analyze the binding activity of anti-CD4 chimeric antibodies KM4045 to KM4049, 6G5-1 and 6G5-P to recombinant human CD4, the binding activity was measured by surface plasmon resonance method (SPR). All of the following manipulations were carried out using a Biacore T100 (manufactured by GE Healthcare Bio-Sciences). […]
measured_parameter: koff (s⁻¹)
Please reply with the bare figure in s⁻¹ and do not write the unit itself.

Example binders with recorded koff:
# binder, observed
records = [
    ("anti-CD4 chimeric antibody KM4049 (antibody, V domains shown, Variable regions of rat KM4069 joined to the '113F type' human IgG1/IgG3 heavy chain constant region (US2007/0148165) and a human kappa constant region; Expressed in FUT8 knockout CHO cells (0% fucose)) VH: QVQLKESGPGLVQPSQTLSLTCTVSGSSLTSNSVSWIRQPPGKGLEWMGVIWSNGDADYNSAIKSRLSISRDTSKSQVFLKMNSLQTEDTAMYFCASPYYGYYFPFDYWGQGVMVTVSS VL: DIQMTQSPASLSASLEEIVTITCKASQAIDAYLSWYQQKPGKSPQLLIYDATSLADGVPSRFSGSRSGTQYSLKISRPQVDDSGIYYCLQSYSTPFTFGSGTKLEIK", 0.00116),
    ("anti-CD4 chimeric antibody KM4047 (antibody, V domains shown, Variable regions of rat KM4067 joined to the '113F type' human IgG1/IgG3 heavy chain constant region (US2007/0148165) and a human kappa constant region; Expressed in FUT8 knockout CHO cells (0% fucose)) VH: QVKLLQSGAALVKPGASVKMSCKASGYTFTDYWVHWVKQSHGKSLEWIGEIYPNNNTTNFNEKFKGKATLTVDKFTSTAYMELSRLTSEDSAIYYCTRGTVYYGLGYFDHWGQGVMVTVSS VL: DIRMTQSPASLSASLGETVNIECLASEDVYSDLAWYQQKPGKSPQLLIYNANNLQSGVPSRFSGSGSGTRYSLKINSLQSEDVATYFCQQYNNYPPYTFGAGTKLELK", 0.000488),
    ("anti-CD4 chimeric antibody KM4046 (antibody, V domains shown, Variable regions of rat KM4066 joined to the '113F type' human IgG1/IgG3 heavy chain constant region (US2007/0148165) and a human kappa constant region; Expressed in FUT8 knockout CHO cells (0% fucose)) VH: EVQLEESGGGLVQPGRSLKLSCLASGFTFSNYGMNWIRQAPGKGLEWVASISGSSTYIYYADTVKGRFTISRENAENTLYLQMTSLRSEDTALYYCAREGSSTDRYYEVSFAYWGQGTLVTVSS VL: DVVLTQTPVSLSVTLGDQASISCRSSQSLEYSDGYTYLEWYLQKPGQSPQVLIYGVSNRFSGVPDRFIGSGSGTDFTLKISRVEPEDLGVYYCFQATHDPYTFGAGTRLELK", "5.12e-05"),
    ("anti-CD4 chimeric antibody KM4048 (antibody, V domains shown, Variable regions of rat KM4068 joined to the '113F type' human IgG1/IgG3 heavy chain constant region (US2007/0148165) and a human kappa constant region; Expressed in FUT8 knockout CHO cells (0% fucose)) VH: QVQLKESGPGLVQPSQTLSLTCTVSGLSLTSNSVSWIRQPPGKGLEWMGIIWSNGDTDYNSAIKSRLSISRDTSKSQVFLKMNSLQTEDTAMYFCANPYYGYNFPFDYWGQGVMVTVSS VL: DIQMTQSPASLSASLEEIVTITCKASQGIDNYLSWYQQKPGKSPQLLIYDATSLADGVPSRFSGSRSGTQYSLKISRPQVDDSGIYYCLQSYSTPFTFGSGTKLEIK", 0.00381),
]

Please examine the following record next.
Tell me the measured koff of anti-CD4 human antibody 6G5-1 (antibody, V domains shown) VH: QVQLQQWGAGLLKPSETLSLTCAVYGGSFSGYYWSWIRQPPGKGLEWIGEINHSGSTNYNPSLKSRVTISVDTSKNQFSLKLSSVTAADTAVYYCARVINWFDPWGQGTLVTVSS VL: DIQMTQSPSSVSASVGDRVTITCRASQDISSWLAWYQHKPGKAPKLLIYAASSLQSGVPSRFSGSGSGTDFTLTISSLQPEDFATYYCQQANSFPYTFGQGTKLEIKR , please.
0.000872
